The origin of these recorded values is patent US20250320293A1.

Target: T1, recombinant human TREM2 protein (amino acids 19 to 174) (human, UniProt Q9NZC2 19-174)
T1 construct: range 19-174
T1 sequence (looked up): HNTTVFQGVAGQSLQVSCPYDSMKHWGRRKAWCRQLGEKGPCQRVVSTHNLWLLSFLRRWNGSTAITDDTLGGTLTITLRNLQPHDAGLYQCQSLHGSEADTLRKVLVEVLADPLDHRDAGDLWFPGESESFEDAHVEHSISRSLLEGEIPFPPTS
Assay: ELISA, crude VHH extract on coated TREM2, anti-HA-HRP; positive if OD450 more than five times the control

{"Binder": "single-domain antibody 12G10 (VHH, Crude extract from E. coli (pMECS vector), detected through an HA tag) VHH: ESGGGLVQPGGSLRLSCAASGFAFSNYVMHWYRQAPEKERELVAIIGSQGGAYTNYAASVKGRFTISRDNAKNMVYLQMNNLKPEDTAVYYCNVVYIGRPNWGQGTQVTVSS", "binding result": "binds"}
{"Binder": "single-domain antibody 1H1 (VHH, Crude extract from E. coli (pMECS vector), detected through an HA tag) VHH: ESGGGLVQPGGSLRLSCAASGRTFSSYVMGWFRQAPGKEREFVAAISWSGGITYYGDSVKGRFTISRDNAKNTVFLQMNSLKPEDTAVYYCASGSGSYYRGWEYDYWGQGTQVTVSS", "binding result": "binds"}
{"Binder": "single-domain antibody 10F10 (VHH, Crude extract from E. coli (pMECS vector), detected through an HA tag) VHH: ESGGGLVQPGGSLRLSCAASGFAFGNYVMHWYRQAPEKERELVAIIGSQGGTYTNYADSVKGRFTISRDNAKNMVYLQMNNLKPEDTAVYYCNVVYIGRPNWGQGTQVTVSS", "binding result": "binds"}
